System: L1210 leukemia ip in BDF1 mice, survival T/C
experimentalDetails: NCI In Vivo Anticancer Drug Screen. Data for tumor model L1210 Leukemia (intraperitoneal) in B6D2F1 (BDF1) mice
experimentalConditions: endpoint: mean survival time; dose: 100.0 mg/kg/injection; schedule: Q01DX001 (ip); vehicle: saline; higher = longer survival
Toxic doses and inconclusive results are not listed.
Parameter: T/C. Scope: all listed entries.
propertyMeasured: T/C

CS(=O)(=O)OCCCS(=O)(=O)O
102 % of control
Cc1c(CCNC=O)cc(C)c2c3c(oc12)CCCC3
104 % of control
CNS(=O)(=O)c1ccc(Cl)cc1
95 % of control
CCOC(=O)C1CN(Cc2ccccc2)C(=O)C1=O (stereo not given)
102 % of control
CC(C)=NNC(=O)c1ccc[n+](C)c1
102 % of control
CC(c1ccccc1)S(=O)(=O)c1ccccc1 (stereo not given)
102 % of control
COc1ccc(CC(=O)C2C(=O)N(C)c3ccccc32)cc1OC (stereo not given)
102 % of control
CCCCCCNC1=C(C)C(=O)C(NCCCCCC)=C(C)C1=O
104 % of control
O=C(NCCCCC(NC(=O)OCc1ccccc1)C(=O)NCCCCCCN(CCCCCCNC(=O)C(CCCCNC(=O)OCc1ccccc1)NC(=O)OCc1ccccc1)C(=O)C(CCCCNC(=O)OCc1ccccc1)NC(=O)OCc1ccccc1)OCc1ccccc1 (stereo not given)
100 % of control
CCCCCCSCCO
94 % of control
Clc1ccc(Cl)c(SSc2cc(Cl)ccc2Cl)c1
101 % of control
O=C(Cc1ccc([N+](=O)[O-])cc1)NCCc1ccc2c(c1)OCO2
96 % of control
BrCCCCBr
103 % of control
CC(C)c1ccc(C(C2C(=O)CC(C)(C)CC2=O)C2C(=O)CC(C)(C)CC2=O)cc1
103 % of control
O=c1cc(NCc2ccccc2[N+](=O)[O-])[nH]c(=O)[nH]1
95 % of control
O=C(O)CCCCCCC(=O)OCC(=O)c1ccc(-c2ccccc2)cc1
94 % of control
Cn1c(=O)cc(C=Nc2ccc(O)cc2)c2ccccc21
94 % of control
Cc1cc(C)c(CCN(C)C)c(C)c1
97 % of control
C=C(C)CCc1ccccc1
104 % of control
COc1ccc(Cl)cc1NC(=O)Nc1c(C)n(C)n(-c2ccccc2)c1=O
90 % of control
C[N+]([O-])(CCC#N)CC(=O)O (stereo not given)
97 % of control
O=[N+]([O-])c1ccc(Cl)nc1
103 % of control
CC(=O)N(N=O)c1ccc([N+](=O)[O-])cc1Cl
102 % of control
O=c1[nH]c2c(cnn2-c2ccccc2)c(=O)n1OS(=O)(=O)c1ccccc1
103 % of control
CCCCCCCCCCOC(=O)c1ccccn1
93 % of control
